Biological target: catalytic domain of USP7 (USP7-CD) (Homo sapiens)
Sequence (Q93009 208-560): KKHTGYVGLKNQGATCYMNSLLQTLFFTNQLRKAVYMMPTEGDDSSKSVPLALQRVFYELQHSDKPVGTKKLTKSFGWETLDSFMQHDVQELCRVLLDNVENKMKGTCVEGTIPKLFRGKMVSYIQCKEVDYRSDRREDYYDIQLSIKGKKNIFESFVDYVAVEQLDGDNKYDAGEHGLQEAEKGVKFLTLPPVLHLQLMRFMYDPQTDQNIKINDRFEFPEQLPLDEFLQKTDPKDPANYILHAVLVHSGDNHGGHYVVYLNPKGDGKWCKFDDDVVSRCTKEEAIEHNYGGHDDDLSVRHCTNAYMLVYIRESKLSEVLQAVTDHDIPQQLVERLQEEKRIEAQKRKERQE
pKd: −log10 of the molar value. Counter-ions that a name gives are not always drawn.
OUTCOME_MEASURE: pKd

CC(CCc1ccccc1)NCC(O)c1ccc(O)c(C(N)=O)c1 (stereo not shown) [Compound 4, Labetalol Hydrochloride]    3.04
O=C(O)Cc1ccccc1Nc1c(Cl)cccc1Cl [Compound 2, Diclofenac Sodium]    3.12
CN1CCC(=C2c3ccccc3CC(=O)c3sccc32)CC1    2.96
Clc1ccccc1CN1CCc2sccc2C1 [Compound 8, Ticlopidine Hydrochloride]    2.83
CCN(CC)CC#CCOC(=O)C(O)(c1ccccc1)C1CCCCC1 (stereo not shown) [Compound 6, Oxybutynin HCl]    3.18
COc1ccnc(C[S+]([O-])c2nc3ccc(OC(F)F)cc3[nH]2)c1OC (stereo not shown) [Compound 10, Pantoprazole Sodium]    3.06
Nc1c(CC(=O)O)cccc1C(=O)c1ccc(Br)cc1 [Compound 1, Bromfenac Sodium]    3.11
CN(C)CCC[C@@]1(c2ccc(F)cc2)OCc2cc(C#N)ccc21    2.91

[1] Nc1nnc(-c2cccc(Cl)c2Cl)c(N)n1
[2] CC(C(=O)O)c1cccc(C(=O)c2ccccc2)c1 (stereo not shown)
Problem: // compare measured pKd, left 1 , right 2 , return larger Refer to your chosen item by its label in the answer.
Result: 2
(2: 3.21, 1: 3.00)

Where do these numbers come from? They come from paper PMC10925992.
